- measurement_protocol: qHTS of pediatric cancer cell lines to identify multiple opportunities for drug repurposing: Confirmatory screen for Rh41 cells (AID 1347123);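 further: 48 h compound exposure; nearly all actives have a fitted effect of over 60% in size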
- measurement_parameters: Rh41 rhabdomyosarcoma cells, viability/cytotoxicity qHTS; series mostly up to 45.9 µM
Records with an inconclusive call do not appear. Activity calls are given as the source filed them. The call rests on the fitted dose curve; in most records, active means well fitted cell-killing curve with a large enough effect; inconclusive means small, poorly fitted or top-dose-only effect; inactive means no such curve, though single readings can be large or run the other way.
Possible outcomes: active, inactive

compound	cat
CCCCCCCCCCC[C@@H](C[C@@H]1OC(=O)[C@H]1CCCCCC)OC(=O)[C@H](CC(C)C)NC=O	active
C=C[C@@]1(C)CC(=O)[C@]2(O)[C@@]3(C)[C@@H](O)CCC(C)(C)[C@@H]3[C@H](O)[C@H](OC(C)=O)[C@@]2(C)O1	inactive
CC1CCc2c(N3CCC(O)CC3)c(F)cc3c(=O)c(C(=O)O)cn1c23 (stereo not drawn)	active
O=C(Oc1cccc2cccnc12)c1ccccc1	active
C[C@H]1O[C@@H](O[C@H]2CC[C@@]3(C)[C@H](CC[C@@H]4[C@@H]3C[C@@H](O)[C@]3(C)[C@@H](C5=CC(=O)OC5)CC[C@]43O)C2)C[C@H](O)[C@@H]1O[C@H]1C[C@H](O)[C@H](O[C@H]2C[C@H](O)[C@H](O[C@@H]3O[C@H](CO)[C@@H](O)[C@H](O)[C@H]3O)[C@@H](C)O2)[C@@H](C)O1	active
CCN(CC)CCOc1ccc2c(c1)C(=O)c1cc(OCCN(CC)CC)ccc1-2	active
O=C(CCCN1CC=C(n2c(=O)[nH]c3ccccc32)CC1)c1ccc(F)cc1	active
CCN1/C(=C/C=C/c2sc3ccccc3[n+]2CC)Sc2ccccc21	active

* * *

- Test system: CRL-7250
- measurement_protocol: Cytotoxic Profiling of Annotated Libraries Using Quantitative High-Throughput Screening (AID 1296008); further: on the % scale 0 is the no-effect control and ±100 the full control effect; nearly all actives have a fitted effect of over 60% in size
- measurement_parameters: Five cell lines viability, CellTiter-Glo ATP luminescence, 48-72 h; hits give low values
Results filed as inconclusive are left out.
Catalogue of molecules with associated max response
quantity_measured: max response (%)

                                    molecule  quantity_measured  recorded_number
 0          O=C(NCCc1c[nH]c2ccccc12)c1cccnc1       max response              2.2
 1  CN(CCCN1c2ccccc2CCc2ccccc21)CC(=O)c1ccc(Cl)cc1       max response            -9.87
 2       CN(C)CCN1C(=O)c2ccccc2N(C)c2ccccc21       max response            -7.77
 3                     C=CCN1CCc2nc(N)sc2CC1       max response            -5.69
 4                       Cc1ncc(CO)c(C=O)c1O       max response            -16.1
 5                     C/C=C/c1ccc(O)c(OC)c1       max response           -0.654
 6  CC(=C(CCOC(=O)C(C)C)SSC(CCOC(=O)C(C)C)=C(C)N(C=O)Cc1cnc(C)nc1N)N(C=O)Cc1cnc(C)nc1N       max response            0.406
 7  COP(=O)(OC)OC(c1ccc(Cl)cc1)P(=O)(OC)OC (stereo not drawn)       max response            -8.32
 8      CCCN(CCc1cccs1)[C@H]1CCc2c(O)cccc2C1       max response             -5.8
 9  O=C(c1ccc(F)cc1)C1CCN(CCn2c(=S)[nH]c3ccccc3c2=O)CC1       max response            -5.62
10  Cc1ccc(O)c([C@H](CCN(C(C)C)C(C)C)c2ccccc2)c1       max response            -4.37
11                     CC(=O)NC(=O)c1ccccc1O       max response            -3.82
12          O=C(O)c1ccc(S(=O)(=O)N(Cl)Cl)cc1       max response              3.6
13           Nc1nc(-c2ccccc2)c(Br)c(=O)[nH]1       max response            -18.3
14  NS(=O)(=O)c1cc2c(cc1Cl)NC(CC1CCCC1)NS2(=O)=O (stereo not drawn)       max response            -2.46
15     CN1CCN(C2=Nc3ccccc3Sc3ccc(Cl)cc32)CC1       max response            -8.62
16     CN1CCc2cccc3c2[C@H]1Cc1ccc(O)c(O)c1-3       max response            -21.4
17       CCCCCCCCOc1ccc(C(=O)c2ccccc2)c(O)c1       max response            -1.36
18  C[C@H]1[C@H]2CC[C@H]3[C@@H]4CC=C5C[C@@H](N(C)C)CC[C@]5(C)[C@H]4CC[C@]23CN1C       max response            -17.6
19                  Nc1ccc(C(=O)NCC(=O)O)cc1       max response            -1.17
20              O=C(Oc1cccc2cccnc12)c1ccccc1       max response            -27.3
21  O=C(CCCN1CC=C(n2c(=O)[nH]c3ccccc32)CC1)c1ccc(F)cc1       max response            -30.7
22  CCN1CCN(C(=O)N[C@@H](C(=O)N[C@@H]2C(=O)N3C(C(=O)O)=C(CSc4nnnn4C)CS[C@H]23)c2ccc(O)cc2)C(=O)C1=O       max response             3.23

* * *

- Test system: CP256
- measurement_protocol: qHTS profiling for inhibitors of Plasmodium falciparum proliferation (AID 504749); further: nearly all actives have a fitted effect of over 60% in size
- measurement_parameters: P. falciparum in erythrocytes, SYBR Green DNA, 72 h; series mostly up to 28.7 µM
Records with an inconclusive call do not appear. Activity calls are given as the source filed them. Calls follow the shape of the dose curve; as a rule, active = well fitted inhibition curve with a large enough effect; inconclusive = small, poorly fitted or top-dose-only effect; inactive = flat fitted curve, though single readings scatter.
Possible outcomes: active, inactive

                                      smiles       cat
 0                     CCCCCCCCCCCCCCCC(=O)O  inactive
 1                     CC(=O)NC(=O)c1ccccc1O  inactive
 2  CC1=C(C(=O)O)N2C(=O)[C@@H](NC(=O)[C@H](N)c3ccccc3)[C@H]2SC1  inactive
 3          O=C(O)c1ccc(S(=O)(=O)N(Cl)Cl)cc1  inactive
 4         CCCCCCCCCCCCCC[N+](C)(C)Cc1ccccc1    active
 5                  Nc1ccc(C(=O)NCC(=O)O)cc1  inactive
 6                         CCCCCCCCCCCCCCCCO  inactive
 7             O=C(O)Cc1csc(-c2ccc(Cl)cc2)n1  inactive
 8  CCN(CC)CCOc1ccc2c(c1)C(=O)c1cc(OCCN(CC)CC)ccc1-2    active
 9        Cc1ccc(S(=O)(=O)NC(=O)NC2CCCC2)cc1  inactive
10                        NCCNc1cccc2ccccc12  inactive
11                                  CC(=O)NO  inactive
12  CCCCNc1ccc(C(=O)OCCOCCOCCOCCOCCOCCOCCOCCOCCOC)cc1  inactive

* * *

- measurement_protocol: qHTS profiling for inhibitors of Plasmodium falciparum proliferation (AID 504749); further: nearly all actives have a fitted effect of over 60% in size; further: potency means the concentration at half of the fitted maximal effect
- measurement_parameters: P. falciparum in erythrocytes, SYBR Green DNA, 72 h; parasite line A
Results filed as inconclusive are left out. The source made the active and inactive calls. Calls come from the whole dose curve; as a rule, active = well fitted inhibition curve with a large enough effect; inconclusive = small, poorly fitted or top-dose-only effect; inactive = flat fitted curve, though single readings scatter.
quantity_measured: Potency

>>> print(df.to_string())
                                   molecule  quantity_measured            result
0  CC(C)NCC(O)c1ccc2ccccc2c1 (stereo not drawn)            Potency  11.2 µM (active)
1     CCCCCN=C(N)N/N=C/c1c[nH]c2ccc(OC)cc12            Potency  8.91 µM (active)
2  O=C(Nc1cccc(C2=NCCN2)c1)Nc1cccc(C2=NCCN2)c1            Potency  8.91 µM (active)

* * *

- Test system: DIV14
- measurement_protocol: qHTS profiling for inhibitors of Plasmodium falciparum proliferation (AID 504749); further: nearly all actives have a fitted effect of over 60% in size; further: potency means the concentration at half of the fitted maximal effect
- measurement_parameters: P. falciparum in erythrocytes, SYBR Green DNA, 72 h; series mostly up to 28.7 µM
Records with an inconclusive call do not appear. Calls of active or inactive are those of the source. Calls come from the whole dose curve; as a rule, active = well fitted inhibition curve with a large enough effect; inconclusive = small, poorly fitted or top-dose-only effect; inactive = flat fitted curve, though single readings scatter.
quantity_measured: Potency

In [3]: df
Out[3]:
                                    molecule            result
 0                  CCCCCCCCCCCCCC(=O)OC(C)C          inactive
 1  CC1(COc2ccc(CC3SC(=O)NC3=O)cc2)CCCCC1 (stereo not given)          inactive
 2          CCN(CC)CCNC(=O)c1cc(Br)c(N)cc1OC          inactive
 3  FC1(F)C(F)(F)C(F)(F)C2(F)C(F)(F)C(F)(F)C(F)(F)C(F)(F)C2(F)C1(F)F (stereo not given)          inactive
 4  NC(N)=NN=C(/C=C/c1ccc([N+](=O)[O-])o1)/C=C/c1ccc([N+](=O)[O-])o1  7.57 µM (active)
 5  C#C[C@]1(O)CC[C@H]2[C@@H]3CCC4=Cc5oncc5C[C@]4(C)[C@H]3CC[C@@]21C          inactive
 6                      CCOc1ccc(NC(C)=O)cc1          inactive
 7        CCOc1cc(OCC)c(C(=O)CCC(=O)O)cc1OCC          inactive
 8  O=C(CCN1CCN2CCCC2C1)N1c2ccccc2Sc2ccc(Cl)cc21 (stereo not given)  4.26 µM (active)
 9                       NC(N)=NCc1cccc(I)c1          inactive
10  Clc1cccc(C(c2ccc3nc[nH]c3c2)n2ccnc2)c1 (stereo not given)  15.1 µM (active)
11                     CCCCCCCCCCCCCCCC(=O)O          inactive
12  C[N+]1(CC2COC(c3ccccc3)(C3CCCCC3)O2)CCCCC1 (stereo not given)  6.01 µM (active)
13  Cc1ccc(O)c([C@H](CCN(C(C)C)C(C)C)c2ccccc2)c1  1.35 µM (active)
14            Nc1ccc(S(=O)(=O)NCc2ccccc2)cc1          inactive
15                              CNCCc1ccccn1          inactive
16  CCOc1ccccc1OCCN[C@H](C)Cc1ccc(OC)c(S(N)(=O)=O)c1          inactive
17  COC(=O)C(c1ccccc1Cl)N1CCc2sccc2C1 (stereo not given)          inactive
18  CC(=O)OCC(=O)[C@H]1CC[C@H]2[C@@H]3CCC4=CC(=O)CC[C@]4(C)[C@H]3CC[C@]12C          inactive
19  CCC1Nc2cc(Cl)c(S(N)(=O)=O)cc2S(=O)(=O)N1 (stereo not given)          inactive
20                     O=S(=O)(O)c1ccc(O)cc1          inactive
21            Cn1c(=O)c2[nH]c(Br)nc2n(C)c1=O          inactive
22  Oc1c(Cl)cc(Cl)c(Cl)c1Cc1c(O)c(Cl)cc(Cl)c1Cl  10.7 µM (active)
23                  NS(=O)(=O)Cc1noc2ccccc12          inactive
24   CCc1oc2ccccc2c1C(=O)c1cc(Br)c(O)c(Br)c1          inactive
25  CN(C)CCC[C@@]1(c2ccc(F)cc2)OCc2cc(C#N)ccc21          inactive
26                COc1cc(C(=S)N2CCOCC2)ccc1O          inactive
27  COc1ccc(-c2cc(C(F)F)nn2-c2ccc(S(N)(=O)=O)cc2)cc1F          inactive
28               CN(C)C(=O)Nc1ccc(Cl)c(Cl)c1  3.01 µM (active)
29  CN1CCN(c2c(F)cc3c(=O)c(C(=O)O)cn4c3c2SCC4)CC1          inactive
30  FC(F)(F)C(F)(F)C(F)(F)C(F)(F)C(F)(F)C(F)(F)C(F)(F)C(F)(F)Br          inactive
31                  Nc1ccc(C(=O)NCC(=O)O)cc1          inactive
32  COP(=O)(OC)OC(c1ccc(Cl)cc1)P(=O)(OC)OC (stereo not given)          inactive
33           CC(C)Cn1cnc2c1c(=O)n(C)c(=O)n2C          inactive
34                           O=C(O)P(=O)(O)O          inactive
35       Nc1ccc(S(=O)(=O)Nc2cnc3ccccc3n2)cc1          inactive
36        CCCN(CCC)S(=O)(=O)c1ccc(C(=O)O)cc1          inactive
37  C[C@@H](O)[C@H]1C(=O)N2C(C(=O)O)=C(S[C@@H]3CN[C@H](CNS(N)(=O)=O)C3)[C@H](C)[C@H]12          inactive
38  O=C(Nc1cccc(C2=NCCN2)c1)Nc1cccc(C2=NCCN2)c1  3.01 µM (active)
39                     NCCNC(=O)c1ccc(Cl)cn1          inactive
40                  CC(=O)Nc1ccc(CC(=O)O)cc1          inactive
41  C#C[C@]1(O)CC[C@H]2[C@@H]3CCc4cc(OC)ccc4[C@H]3CC[C@@]21C          inactive
42                     CC(=O)NC(=O)c1ccccc1O          inactive
43                                  CC(=O)NO          inactive
44                      NC(=S)N/N=C/c1cccnc1          inactive
45                O=C1C(O)=C(O)C(=O)C(O)=C1O          inactive
46  OC1C(O)C(O)C(O)C(O)C1O (stereo not given)          inactive
47                      N=C(N)N1CCc2ccccc2C1          inactive
48                  CNCCCCOc1ccccc1Cc1ccccc1  3.79 µM (active)
49  CC(C)(C)CC(C)(C)c1ccc(O)c(-n2nc3ccccc3n2)c1  13.5 µM (active)

The origin of these recorded values is PubChem BioAssay (NCATS).
